Let's look at some compounds and their measured GI50.
System: NCI-H460
Assay: NCI tumour cell line growth inhibition, 48 h
Active and inactive are the calls of the source. Rule as the data show it: active = GI50 up to about 1.1 µM and inactive = higher.

A selection of reference data follows.
{"columns": ["compound", "tgt", "measured-quantity", "data-value"],
 "data": [
  ["CO[C@@]12C[C@@H](C)C3=CCC(C)=C3CC1=C(C)C(=O)O2", "NCI-H460", "GI50", "> 100 µM (inactive)"],
  ["COc1ccc(-n2c(=O)n(C)c(=O)n2-c2c(C)c(C)c(C)c(C)c2C)cc1", "NCI-H460", "GI50", "> 100 µM (inactive)"]
]}

Request: Bench note: what GI50 did COc1cc2c(cc1OC)C(=O)Cc1ccc3c(c1CNCC2)OCO3 show?
Response: > 100 µM (inactive)

Request: Note, next up: COC(=O)/C=C/c1cnc2c(c1)oc(=O)n2CCc1ccccn1
Response: > 100 µM (inactive)

Request: Note, next up: CCC1c2[nH]c3ccccc3c2C[C@H]2C(=O)NC(CCCCNC(=O)OC(C)(C)C)C(=O)N12 (stereo partly specified)
Response: 30.1 µM (inactive)

Request: Note, next up: C/C=C/OC1C(C2COC(C)(C)O2)OC2OC(C)(C)OC21 (stereo unspecified)
Response: > 100 µM (inactive)

----------
Tested on: CCRF-CEM
Assay: NCI tumour cell line growth inhibition, 48 h
Activity calls are given as the source filed them. Rule as the data show it: active = GI50 up to about 1.1 µM and inactive = higher.
measured-quantity: GI50

{"columns": ["molecule", "tgt", "GI50"],
 "data": [
  ["COc1ccc(NC(=O)C(=O)C(CC2C(=O)NC(=S)NC2=O)C(=O)c2ccc3ccccc3c2)c([N+](=O)[O-])c1 (centres undefined)", "CCRF-CEM", "8.99 µM (inactive)"],
  ["CC(C)c1cccc(C(C)C)c1NC(=O)C(=O)C1CCC2=C(Sc3ccccc3N2)C1=O (centres undefined)", "CCRF-CEM", "24 µM (inactive)"],
  ["CC1CCCN1CCCOC(=O)c1ccc(OC2C=CCCC2)cc1 (centres undefined)", "CCRF-CEM", "30.3 µM (inactive)"]
]}

Kindly consider the entry below.
Request: Bench note: what GI50 did C[C@H](CCC(=O)O)[C@H]1CC[C@H]2[C@@H]3[C@H](O)C[C@@H]4C[C@H](O)CC[C@]4(C)[C@H]3C[C@H](O)[C@]12C show?
Response: > 100 µM (inactive)

----------
System: SF-539
Assay: NCI tumour cell line growth inhibition, 48 h
The source made the active and inactive calls. Cut-off read from the data, not from the text of the source: active = GI50 up to about 1.1 µM and inactive = higher.
measured-quantity: GI50

A selection of reference data follows.
{"columns": ["compound", "GI50"],
 "data": [
  ["CCOC(=O)c1cn(CC)c2cc3c(cc2c1=O)SCS3", "> 100 µM (inactive)"],
  ["NC(Cc1ccc(O)c(O)c1)P(=O)(O)O (stereo unspecified)", "> 100 µM (inactive)"],
  ["Cc1c(C(=O)/C=C/c2ccco2)[n+]([O-])c2ccccc2[n+]1[O-]", "> 100 µM (inactive)"],
  ["CCc1nc2ccccc2c(=O)n1/N=C(\\N=N\\c1ccc(Cl)cc1)c1ccc(N(C)C)cc1", "30.3 µM (inactive)"],
  ["O=C(c1ccc(Cl)cc1Cl)N(C(=O)N1CCC(c2ccccc2)CC1)c1ccccc1", "> 100 µM (inactive)"]
]}

Kindly consider the entry below.
Request: Bench note: what GI50 did CC(C)C1=CC23CCC4C(C)(C(=O)O)CCCC4(C)C2CC1C1C(=O)N(CCCCCCN2C(=O)C4C5CC6C7(C)CCCC(C)(C(=O)O)C7CCC6(C=C5C(C)C)C4C2=O)C(=O)C13 (stereo unspecified) show?
Response: > 10 µM (inactive)

----------
System: HOP-18
Experiment: NCI tumour cell line growth inhibition, 48 h
Calls of active or inactive are those of the source. Cut-off read from the data, not from the text of the source: active = GI50 up to about 1.1 µM and inactive = higher.
Let's look at some compounds and their measured GI50.

A selection of reference data follows.
{"columns": ["compound", "data-value"],
 "data": [
  ["O=C(N/N=C1\\C(=O)N(c2nccs2)C(=O)C(=O)C1c1nc2ccccc2s1)c1ccccc1O (centres undefined)", "10.1 µM (inactive)"],
  ["Cc1cc(Cl)ccc1NC(=O)C(=O)Cc1occc(=O)c1O", "> 100 µM (inactive)"],
  ["O=[N+]([O-])c1cccc(C2=NOC3C4CCC(C4)C23)c1 (centres undefined)", "> 100 µM (inactive)"]
]}

Request: Bench note: what GI50 did CCCCCCCCCCCCCCCCc1c(O)nc(NC#N)nc1C(=O)OC show?
Response: > 25 µM (inactive)

----------
Test system: A498
Test: NCI tumour cell line growth inhibition, 48 h
Activity calls are given as the source filed them. No stated cut-off is given here; in the data, active = GI50 up to about 1.1 µM and inactive = higher.
Field 'call' accepts True = active, False = inactive

Examples with answers:
{"columns": ["compound", "group"],
 "data": [
  ["CC1=CCC2(C#N)CCC1C2O (stereo unspecified)", "False"],
  ["CC(=O)/C(=C/N1CCNC1=S)C(=O)Nc1ccccc1C", "False"],
  ["COc1ccc(CC2Cc3ccccc3CCN2)cc1OC (stereo unspecified)", "False"],
  ["Cc1cc(C(O)CCCc2ccccc2)cc(C)c1O (stereo unspecified)", "False"],
  ["COC(=O)NC1=NNC(=O)c2ccccc2N1", "False"]
]}

Request: Please indicate how the test categorized O=S1(=O)NN=C(NCc2ccc(F)cc2)c2ccccc21 .
Response: False

Request: Note, next up: COC(=O)CCC12CCC(O1)c1ccccc12 (stereo unspecified)
Response: False

Request: Note, next up: CC1CN1c1c(C(=O)/C=C/c2ccc(Cl)cc2)c(-c2ccccc2)nn(C)c1=O (stereo unspecified)
Response: False

Request: Note, next up: CC[C@H](C)[C@@H]([C@@H](CC(=O)N1CCC[C@H]1[C@H](OC)[C@@H](C)C(=O)NCCc1ccccc1)OC)N(C)C(=O)C(NC(=O)[C@H](C(C)C)N(C)C)C(C)C (stereo partly specified)
Response: True

Request: Note, next up: CO[C@@]12[C@H](COC(N)=O)C3=C(C(=O)C(C)=C(N)C3=O)N1C[C@@H]1N[C@@H]12 [MITOMYCIN]
Response: True

----------
Let's look at some molecules and their measured GI50.
System: SK-MEL-5
Assay: NCI tumour cell line growth inhibition, 48 h
Calls of active or inactive are those of the source. Rule as the data show it: active = GI50 up to about 1.1 µM and inactive = higher.

A selection of reference data follows.
{"columns": ["molecule", "measured-quantity", "data-value"],
 "data": [
  ["COc1cc(C)c2c(c1C=O)Oc1c(c(C)c(O)c3c1C(O)OC3=O)OC2=O (stereo not drawn)", "GI50", "20.2 µM (inactive)"],
  ["Nc1nc(N)c(/N=N/c2ccc(C(=O)O)c(O)c2)c(N)n1", "GI50", "> 100 µM (inactive)"],
  ["Cc1cc(=O)n2nc(CN3CCCCC3)sc2n1", "GI50", "> 100 µM (inactive)"],
  ["COC(=O)CCC(NC(=S)N/N=C(\\C)c1cnc2ccccc2n1)C(=O)OC (stereo not drawn)", "GI50", "21.2 µM (inactive)"],
  ["Cc1ccc(/C=C2\\Cc3cccc(C)c3C2=O)c(C(=O)O)c1", "GI50", "71.1 µM (inactive)"]
]}

Request: Write down the reported GI50 of COCCOCCOC1=C(Cl)C(=O)c2c(O)ccc(O)c2C1=O , test system: SK-MEL-5.
Response: 1.71 µM (inactive)

Request: Note, next up: CC(C)c1cccc2sc(NC(=O)C(=O)C(C#N)c3cccc4ccccc34)nc12 (stereo not drawn)
Response: 68.1 µM (inactive)

Request: Note, next up: O=C1c2c(ccc3c2CCCC3)CC1Cc1ccc2c(c1)CCCC2 (stereo not drawn)
Response: 22.6 µM (inactive)

Request: Note, next up: CCCCC#CS(=O)(=O)C(F)(F)F
Response: 52.7 µM (inactive)

Request: Note, next up: CCOC(CNCCC(=O)OC)OCC
Response: > 10 µM (inactive)

Request: Note, next up: CC(=O)Oc1ccccc1/C=C/C(=O)/C=C/c1ccccc1OC(C)=O
Response: 1.84 µM (inactive)

Request: Note, next up: O=[N+]([O-])C(=C(\Cl)NCCO)/C(Cl)=C(/Cl)Br
Response: 2.44 µM (inactive)

Request: Note, next up: NC(Cc1cccc([N+](=O)[O-])c1)C(=O)O (stereo not drawn)
Response: > 100 µM (inactive)

----------
Let's look at some molecules and their measured GI50.
System: U-251
Test: NCI tumour cell line growth inhibition, 48 h
Activity calls are given as the source filed them. Cut-off read from the data, not from the text of the source: active = GI50 up to about 1.1 µM and inactive = higher.

{"columns": ["molecule", "measured-quantity", "data-value"],
 "data": [
  ["CCOC(=O)/C=C/C1OC(C)(C)OC1/C=C/C(=O)OCC (stereo not drawn)", "GI50", "41.3 µM (inactive)"],
  ["COc1ccc(C(=O)OCC2OC(n3cnc4c(=S)nc[nH]c43)C(OC(=O)c3ccc(OC)cc3)C2OC(=O)c2ccc(OC)cc2)cc1 (stereo not drawn)", "GI50", "> 100 µM (inactive)"]
]}

Request: Bench note: what GI50 did N#CC1(C#N)C(C#N)(C#N)C12CCCCCC2 show?
Response: 14.1 µM (inactive)

Hey, just so you know, these numbers are from ChEMBL document CHEMBL1201862.
